All figures here come from BindingDB's records for doi:10.1007/bf00176615.

targetDesc: 5-hydroxytryptamine 1D receptor (Bos taurus, UniProt Q8MI13)
Sequence (Q8MI13 whole entry): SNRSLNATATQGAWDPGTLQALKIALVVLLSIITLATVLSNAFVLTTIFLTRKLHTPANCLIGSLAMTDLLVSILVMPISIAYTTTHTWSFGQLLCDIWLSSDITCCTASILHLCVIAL

| molSmiles | quantityUnit | Ki |
| --- | --- | --- |
| CCN(CC)CCOC(=O)c1cc(Cl)c(N)cc1OC | nM | 2510 |

---

targetDesc: Alpha-1A adrenergic receptor (Bos taurus)
Sequence (P18130 whole entry): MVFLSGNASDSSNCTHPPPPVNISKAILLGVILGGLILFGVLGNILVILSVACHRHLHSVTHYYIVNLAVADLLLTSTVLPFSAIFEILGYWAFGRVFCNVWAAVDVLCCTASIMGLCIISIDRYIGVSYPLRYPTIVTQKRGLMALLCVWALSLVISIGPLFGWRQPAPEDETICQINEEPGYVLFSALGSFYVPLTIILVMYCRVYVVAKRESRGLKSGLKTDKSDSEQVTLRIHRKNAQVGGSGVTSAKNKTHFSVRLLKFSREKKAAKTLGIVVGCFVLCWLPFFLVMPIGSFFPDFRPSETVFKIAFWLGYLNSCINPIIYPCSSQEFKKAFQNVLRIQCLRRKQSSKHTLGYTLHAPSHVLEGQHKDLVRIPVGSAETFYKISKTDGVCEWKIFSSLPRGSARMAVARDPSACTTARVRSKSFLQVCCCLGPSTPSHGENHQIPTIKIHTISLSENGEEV
metricName: Ki (µM)

| compound | reportedResult |
| --- | --- |
| CCN(CC)CCOC(=O)c1cc(Cl)c(N)cc1OC [SDZ-205557] | 6.31 |
